assay: Clearance in dog at 1 mg/kg, po or 0.5 mg/kg, iv; assay type: ADME, organism-based, Canis lupus familiaris; settings: in vivo
measured-parameter: clearance (mL/day/kg)
A number alone suffices; assume mL/day/kg.

-- ask For the molecule shown here, `CC(C)(NC(=O)c1cnc(-n2cccn2)nc1O)c1ccccc1` , give the reported clearance.
-- reply 5.76

----------
experiment: Oral bioavailability in C57BL/6J mouse at 1 mg/kg; type: ADME, organism-based; settings: in vivo
measured-parameter: bioavailability (%)
A number alone suffices; assume %.

-- ask For the compound shown here, `COc1ccc(C(NC(=O)c2cnc(-c3cccnn3)nc2O)c2ccc(OC)cc2)cc1` , give the reported bioavailability.
-- reply 6.3

----------
test: Volume of distribution at steady state in C57BL/6J mouse at 1 mg/kg, po or 0.5 mg/kg, iv; assay type: ADME, organism-based; conditions: in vivo, read-out: Vdss
measured-parameter: Vd
Form field: result (number plus unit)

-- ask For the compound shown here, `COc1ccc(C(NC(=O)c2cnc(-c3cccnn3)nc2O)c2ccc(OC)cc2)cc1` , give the reported Vd.
-- reply 0.13 L/kg

----------
test: Cmax in C57BL/6J mouse at 1 mg/kg, po or 0.5 mg/kg, iv; format: ADME, organism-based; design: dose 1 mg/kg; settings: in vivo
measured-parameter: Cmax (µM)
A number alone suffices; assume µM.

-- ask For the compound shown here, `COc1ccc(C(NC(=O)c2cnc(-c3cccnn3)nc2O)c2ccc(OC)cc2)cc1` , give the reported Cmax.
-- reply 8.4

----------
Consider the following compounds and their measured fraction unbound readings.
assay: Protein binding in rat plasma assessed as unbound fraction at 2 mg/kg, po or 1 mg/kg, iv; assay type: ADME, organism-based; conditions: read-out: PPB
Field format: numeric only.

{"compound-structure-string": "COc1ccc(C(NC(=O)c2cnc(-c3cccnn3)nc2O)c2ccc(OC)cc2)cc1", "fraction unbound": 0.006}

Attention now shifts to the item below.
-- ask For the compound shown here, `CC(C)(NC(=O)c1cnc(-n2cccn2)nc1O)c1ccccc1` , give the reported fraction unbound.
-- reply 0.012

----------
experiment: Cmax in rhesus monkey at 1 mg/kg, po or 0.5 mg/kg, iv; assay type: ADME, organism-based, Macaca mulatta; design: dose 1 mg/kg; conditions: in vivo
Consider the following compounds and their measured Cmax readings.
Form field: result (number plus unit)

{"compound-structure-string": "COc1ccc(C(NC(=O)c2cnc(-c3cccnn3)nc2O)c2ccc(OC)cc2)cc1", "measured-parameter": "Cmax", "measurement": "17 µM"}

Attention now shifts to the item below.
-- ask For the compound shown here, `CC(C)(NC(=O)c1cnc(-n2cccn2)nc1O)c1ccccc1` , give the reported Cmax.
-- reply 22 µM

----------
assay: Plasma clearance in rat at 2 mg/kg, po or 1 mg/kg, iv; format: ADME, organism-based
Consider the following compounds and their measured clearance readings.
A number alone suffices; assume mL/min/kg.

{"compound-structure-string": "O=C(NCc1ccc(F)cc1)c1cnc(-c2ccccn2)nc1O", "value-unit": "mL/min/kg", "clearance": 2}

-- ask For the compound shown here, `COc1ccc(C(NC(=O)c2cnc(-c3cccnn3)nc2O)c2ccc(OC)cc2)cc1` , give the reported clearance.
-- reply 0.2

----------
assay: Half life in rat at 2 mg/kg, po or 1 mg/kg, iv; assay type: ADME, organism-based; details: in vivo
half-life below 3 h gives 0.0; half-life at or above it gives 1.0.

These recorded examples may help you get a feel for the data.
{"compound-structure-string": "CC(C)(NC(=O)c1cnc(-c2cscn2)nc1O)c1ccccc1", "answer-label": 0.0}
{"compound-structure-string": "CC(C)(NC(=O)c1cnc(-n2cccn2)nc1O)c1ccccc1", "answer-label": 1.0}
{"compound-structure-string": "CC(C)(NC(=O)c1cnc(-c2cc(C(=O)O)ccn2)nc1O)c1ccccc1", "answer-label": 0.0}
{"compound-structure-string": "O=C(NCc1ccc(F)cc1)c1cnc(-c2ccccn2)nc1O", "answer-label": 1.0}
{"compound-structure-string": "CC(C)(NC(=O)c1cnc(-n2cc(C(=O)O)cn2)nc1O)c1ccccc1", "answer-label": 0.0}

// next entry
-- ask Check if half-life >= 3 h (inclusive). Item: `COc1ccc(C(NC(=O)c2cnc(-c3cccnn3)nc2O)c2ccc(OC)cc2)cc1`
-- reply 1.0

----------
assay: Protein binding in dog plasma assessed as unbound fraction at 1 mg/kg, po or 0.5 mg/kg, iv; type: ADME, organism-based, Canis lupus familiaris; details: read-out: PPB
measured-parameter: fraction unbound
Field format: numeric only.

{"compound-structure-string": "CC(C)(NC(=O)c1cnc(-n2cccn2)nc1O)c1ccccc1", "measurement": 0.027}

Attention now shifts to the item below.
-- ask For the compound shown here, `COc1ccc(C(NC(=O)c2cnc(-c3cccnn3)nc2O)c2ccc(OC)cc2)cc1` , give the reported fraction unbound.
-- reply 0.01

----------
experiment: Cmax in Sprague-Dawley rat at 1.5 mg/kg, po administered as single dose measured at 6 hrs; format: ADME, organism-based; set-up: route oral, time 6 hrs, dose 1.5 mg/kg; details: in vivo
measured-parameter: Cmax (µM)
A number alone suffices; assume µM.

-- ask For the molecule shown here, `COc1ccc(C(NC(=O)c2cnc(-c3cccnn3)nc2O)c2ccc(OC)cc2)cc1` , give the reported Cmax.
-- reply 6.8

----------
test: Metabolic stability in human liver microsomes assessed as metabolic turnover at 10 uM measured after 60 mins in presence of NADPH; format: ADME, Microsome; conditions: read-out: Drug metabolism
measured-parameter: metabolised at 1 h, 10 µM (%)
A number alone suffices; assume %.

-- ask For the compound shown here, `COc1ccc(C(NC(=O)c2cnc(-c3cccnn3)nc2O)c2ccc(OC)cc2)cc1` , give the reported metabolised at 1 h, 10 µM.
-- reply 34

----------
experiment: In vivo inhibition of HIF-PHD2 in C57BL/6 mouse assessed as serum erythropoietin level at 15 mg/kg, iv measured after 4 hrs; format: functional
Consider the following molecules and their measured Activity readings.
A number alone suffices; assume pg/mL.

-- ask For the molecule shown here, `COc1ccc([C@H](C)NC(=O)c2cnc(-n3cccn3)nc2O)cc1` , give the reported Activity.
-- reply 5300

-- ask Another: `CC(C)(NC(=O)c1cnc(-n2cccn2)nc1O)c1ccccc1`
-- reply 5000

-- ask Another: `O=C(NC(c1ccccc1)c1ccccc1)c1cnc(-n2cccn2)nc1O`
-- reply 2900

-- ask Another: `COc1ccc(C(NC(=O)c2cnc(-c3cccnn3)nc2O)c2ccc(OC)cc2)cc1`
-- reply 12000

-- ask Another: `C[C@H](NC(=O)c1cnc(-n2cccn2)nc1O)c1ccc(F)cc1`
-- reply 16000

-- ask Another: `C[C@@H](NC(=O)c1cnc(-n2cccn2)nc1O)c1ccc(F)cc1`
-- reply 350

-- ask Another: `O=C(NC(c1ccccc1)c1ccccc1)c1cnc(-c2cccnn2)nc1O`
-- reply 1600

-- ask Another: `CC(C)(NC(=O)c1cnc(-c2cc(C(=O)O)ccn2)nc1O)c1ccccc1`
-- reply 220

-- ask Another: `C[C@@H](NC(=O)c1cnc(-n2cccn2)nc1O)c1ccccc1`
-- reply 322

-- ask Another: `CC(C)(NC(=O)c1cnc(-n2cc(C(=O)O)cn2)nc1O)c1ccccc1`
-- reply 1900

-- ask Another: `O=C(NCc1ccc(OC(F)(F)F)cc1)c1cnc(-n2cccn2)nc1O`
-- reply 180

-- ask Another: `C[C@H](NC(=O)c1cnc(-n2cccn2)nc1O)c1ccccc1`
-- reply 10000

-- ask Another: `COc1ccc(C(NC(=O)c2cnc(-n3cccn3)nc2O)c2ccc(OC)cc2)cc1`
-- reply 31000

-- ask Another: `O=C(NCc1ccc(Cl)cc1)c1cnc(-n2cccn2)nc1O`
-- reply 1100

----------
assay: Half life in C57BL/6J mouse at 1 mg/kg, po or 0.5 mg/kg, iv; format: ADME, organism-based; conditions: in vivo
measured-parameter: half-life (h)
A number alone suffices; assume h.

-- ask For the molecule shown here, `COc1ccc(C(NC(=O)c2cnc(-c3cccnn3)nc2O)c2ccc(OC)cc2)cc1` , give the reported half-life.
-- reply 11

----------
experiment: Clearance in rat at 2 mg/kg, po or 1 mg/kg, iv; assay type: ADME, organism-based; conditions: in vivo
measured-parameter: clearance (mL/min/kg)
A number alone suffices; assume mL/min/kg.

-- ask For the compound shown here, `CC(C)(NC(=O)c1cnc(-n2cccn2)nc1O)c1ccccc1` , give the reported clearance.
-- reply 0.2

----------
experiment: Half life in mouse at 2 mg/kg, po or 1 mg/kg, iv; type: ADME, organism-based; settings: in vivo
measured-parameter: half-life (h)
A number alone suffices; assume h.

-- ask For the compound shown here, `CC(C)(NC(=O)c1cnc(-n2cccn2)nc1O)c1ccccc1` , give the reported half-life.
-- reply 3.7

----------
target: Egl nine homolog 1 (Homo sapiens, UniProt Q9GZT9); assay: Inhibition of HIF-PHD2 (unknown origin)
Sequence (Q9GZT9 whole entry): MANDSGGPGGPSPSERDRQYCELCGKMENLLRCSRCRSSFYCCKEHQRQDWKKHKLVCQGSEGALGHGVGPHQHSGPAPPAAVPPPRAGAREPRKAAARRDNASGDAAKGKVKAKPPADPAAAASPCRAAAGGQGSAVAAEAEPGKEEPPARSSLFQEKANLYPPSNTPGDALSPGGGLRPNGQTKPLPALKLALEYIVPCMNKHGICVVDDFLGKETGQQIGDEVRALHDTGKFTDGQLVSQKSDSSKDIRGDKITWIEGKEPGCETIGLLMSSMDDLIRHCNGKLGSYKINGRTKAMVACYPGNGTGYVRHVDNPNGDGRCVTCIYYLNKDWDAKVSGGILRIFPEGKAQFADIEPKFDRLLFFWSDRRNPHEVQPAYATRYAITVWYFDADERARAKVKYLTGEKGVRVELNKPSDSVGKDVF
measured-parameter: IC50 (nM)
A number alone suffices; assume nM.

-- ask For the compound shown here, `O=C(NCc1ccc(F)cc1)c1cnc(-c2ccccn2)nc1O` , give the reported IC50.
-- reply 110
